Tested System: T1, GLP-1R (INS1e assay) (UniProt P32301 22-463, limits assumed)
T1 sequence (looked up): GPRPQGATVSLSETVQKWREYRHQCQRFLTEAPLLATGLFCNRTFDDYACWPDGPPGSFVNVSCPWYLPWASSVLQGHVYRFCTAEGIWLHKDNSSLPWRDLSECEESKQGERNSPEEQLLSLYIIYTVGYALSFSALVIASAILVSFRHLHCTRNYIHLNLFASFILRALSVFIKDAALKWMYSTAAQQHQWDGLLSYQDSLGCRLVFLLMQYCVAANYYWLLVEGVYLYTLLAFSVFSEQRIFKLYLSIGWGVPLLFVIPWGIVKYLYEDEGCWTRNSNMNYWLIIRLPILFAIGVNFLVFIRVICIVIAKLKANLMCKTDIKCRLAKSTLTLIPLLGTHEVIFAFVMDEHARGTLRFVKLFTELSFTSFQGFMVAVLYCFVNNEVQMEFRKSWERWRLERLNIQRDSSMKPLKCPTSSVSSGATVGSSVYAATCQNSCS
Test Protocol: cell-based or functional assay
Starred links: 1 amine or outer side, 2 acyl side, 3 side chain; linkers in the order of their positions; H or OH if unused. Non-standard residues stand in square brackets, D forms with d. Groups on a side chain read outwards from the residue. Primed or numbered codes have the meaning given here. No end group written: not given here. *: point of attachment. γGlu = O=C(O)[C@H](CCC(=O)[*:2])N[*:1]; Stearoyl = CCCCCCCCCCCCCCCCCC(=O)*; αMeF = C[C@](N)(Cc1ccccc1)C(=O)O; αMeK = C[C@](N)(CCCCN)C(=O)O; Lauroyl = CCCCCCCCCCCC(=O)*; αMeS = C[C@](N)(CO)C(=O)O; PEG2′ = not defined here; Aib = CC(C)(N)C(=O)O
Measurement Kind: INS1e assay EC50 GLP-1 R n2 (nM)
Answers are plain numbers, in nM.

H[Aib]EGS[αMeF]TSDVSK([PEG2′-PEG2′-PEG2′-Stearoyl])YLEGEAA[Aib]E[αMeF]IA[αMeF]VVEGG-NH2 [SEQ ID NO 63] :: 0.0392
H[Aib]EGS[αMeF]TSDVSS[αMeF]LEGEAAK([PEG2′-PEG2′-PEG2′-Stearoyl])E[αMeF]IA[αMeF]VV[αMeK]GG-NH2 [SEQ ID NO 52] :: 0.0193
H[Aib]EGS[αMeF]TSDV[αMeS]S[αMeF]LEGEAAK([PEG2′-PEG2′-γGlu-Stearoyl])E[αMeF]IA[αMeF]VV[αMeK]GG-NH2 [SEQ ID NO 33] :: 3.78

May I ask what INS1e assay EC50 GLP-1 R n2 has been recorded for H[Aib]EGS[αMeF]TSDV[αMeS]S[αMeF]LEGEAA[αMeK]E[αMeF]IA[αMeF]VVK([PEG2′-PEG2′-PEG2′-Lauroyl])GG-NH2 [SEQ ID NO 172] ?
0.028
